The origin of these recorded values is patent US20230235058A1.

Below, each entry is listed alongside its reported AntiCD3/CD28 (CD4 T cell proliferation) repeat 2.
# ASSAY SYSTEM: chimeric BTLA of humanised-BTLA mice (human extracellular region, murine transmembrane and signaling … (human; mouse, UniProt Q7TSA3 184-306, limits assumed); note: test concentration or dose not given here
# Sequence (Q7TSA3 other isoform, or with tags, fused parts or gaps mutant limits assumed): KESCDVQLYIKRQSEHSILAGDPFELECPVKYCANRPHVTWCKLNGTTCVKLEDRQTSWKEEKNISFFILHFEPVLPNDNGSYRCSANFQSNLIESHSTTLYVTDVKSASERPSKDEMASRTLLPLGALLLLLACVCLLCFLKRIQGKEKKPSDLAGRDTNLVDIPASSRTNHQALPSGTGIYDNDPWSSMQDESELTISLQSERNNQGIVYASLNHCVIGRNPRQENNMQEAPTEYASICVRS
# EXPERIMENT SUMMARY: cell-based or functional assay
Note: unit % inhibition is implicit; provide only the numeric part.

The following binders have reported results that may help.
# binder 12F11 (antibody, IgG1, V domains shown, mIgG1) VH: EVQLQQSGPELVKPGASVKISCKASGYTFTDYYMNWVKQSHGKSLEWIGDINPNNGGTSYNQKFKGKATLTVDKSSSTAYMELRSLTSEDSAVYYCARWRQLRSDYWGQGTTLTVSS VL: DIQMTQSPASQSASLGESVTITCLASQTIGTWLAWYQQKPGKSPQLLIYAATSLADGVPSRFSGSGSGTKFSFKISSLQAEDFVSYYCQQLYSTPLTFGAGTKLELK ; its AntiCD3/CD28 (CD4 T cell proliferation) repeat 2 = 9

# binder 4B1 (antibody, IgG1, V domains shown, mIgG1) VH: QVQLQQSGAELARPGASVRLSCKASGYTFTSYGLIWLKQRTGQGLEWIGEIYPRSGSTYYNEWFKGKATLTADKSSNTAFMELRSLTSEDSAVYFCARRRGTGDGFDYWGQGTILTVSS VL: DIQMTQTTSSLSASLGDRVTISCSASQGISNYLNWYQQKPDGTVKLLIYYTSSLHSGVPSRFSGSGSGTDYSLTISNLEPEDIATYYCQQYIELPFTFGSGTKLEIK ; its AntiCD3/CD28 (CD4 T cell proliferation) repeat 2 = 18

# binder 7A1 (antibody, IgG1, V domains shown, mIgG1) VH: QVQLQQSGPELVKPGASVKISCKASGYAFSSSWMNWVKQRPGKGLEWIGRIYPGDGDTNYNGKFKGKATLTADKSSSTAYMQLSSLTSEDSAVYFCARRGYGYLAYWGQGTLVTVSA VL: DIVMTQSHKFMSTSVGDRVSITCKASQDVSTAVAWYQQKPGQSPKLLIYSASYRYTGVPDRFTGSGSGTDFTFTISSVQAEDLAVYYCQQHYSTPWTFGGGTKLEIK ; its AntiCD3/CD28 (CD4 T cell proliferation) repeat 2 = 17

# binder 11.5.1 D265A (antibody, V domains shown) VH: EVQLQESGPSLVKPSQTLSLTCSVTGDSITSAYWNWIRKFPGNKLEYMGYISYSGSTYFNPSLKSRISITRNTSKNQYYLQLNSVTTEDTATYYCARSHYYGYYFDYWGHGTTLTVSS VL: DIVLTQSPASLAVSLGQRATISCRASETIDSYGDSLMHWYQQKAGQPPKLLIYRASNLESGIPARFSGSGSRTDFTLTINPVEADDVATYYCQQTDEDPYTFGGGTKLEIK ; its AntiCD3/CD28 (CD4 T cell proliferation) repeat 2 = -9

# binder 11.5.1 (antibody, V domains shown, mouse IgG1k hybridoma antibody) VH: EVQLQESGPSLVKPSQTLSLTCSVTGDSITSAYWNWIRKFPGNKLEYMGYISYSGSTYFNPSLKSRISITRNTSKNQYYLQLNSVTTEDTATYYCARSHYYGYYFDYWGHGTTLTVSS VL: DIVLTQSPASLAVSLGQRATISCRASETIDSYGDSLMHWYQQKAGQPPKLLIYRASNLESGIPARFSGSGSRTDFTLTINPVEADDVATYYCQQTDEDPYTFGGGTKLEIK ; its AntiCD3/CD28 (CD4 T cell proliferation) repeat 2 = 28

Others:
# binder 15B6 (antibody, IgG1, V domains shown) VH: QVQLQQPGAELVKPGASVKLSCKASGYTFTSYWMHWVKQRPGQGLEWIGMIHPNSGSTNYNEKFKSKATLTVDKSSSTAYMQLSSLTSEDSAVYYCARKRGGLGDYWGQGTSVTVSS VL: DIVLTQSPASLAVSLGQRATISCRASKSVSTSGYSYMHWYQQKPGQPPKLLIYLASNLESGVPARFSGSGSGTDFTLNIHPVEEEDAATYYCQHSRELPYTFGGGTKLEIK ; its AntiCD3/CD28 (CD4 T cell proliferation) repeat 2 = 16

# binder 24H7 (antibody, IgG1, V domains shown, mIgG1) VH: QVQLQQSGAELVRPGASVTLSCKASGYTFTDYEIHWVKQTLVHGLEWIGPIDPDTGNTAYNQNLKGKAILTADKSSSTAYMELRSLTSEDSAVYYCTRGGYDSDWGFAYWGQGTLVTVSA VL: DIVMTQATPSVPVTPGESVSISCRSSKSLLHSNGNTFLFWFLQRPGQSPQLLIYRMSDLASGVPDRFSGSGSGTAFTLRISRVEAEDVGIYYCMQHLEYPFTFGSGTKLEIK ; its AntiCD3/CD28 (CD4 T cell proliferation) repeat 2 = 23

# binder 26B1 (antibody, IgG1, V domains shown, mIgG1) VH: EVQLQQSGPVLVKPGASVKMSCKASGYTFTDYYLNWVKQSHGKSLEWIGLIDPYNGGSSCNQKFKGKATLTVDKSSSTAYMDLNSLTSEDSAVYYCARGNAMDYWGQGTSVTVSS VL: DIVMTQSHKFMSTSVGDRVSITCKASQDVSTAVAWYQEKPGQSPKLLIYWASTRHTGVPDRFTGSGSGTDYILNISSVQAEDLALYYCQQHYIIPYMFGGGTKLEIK ; its AntiCD3/CD28 (CD4 T cell proliferation) repeat 2 = 19

# binder 16H2 (antibody, IgG1, V domains shown, mIgG1) VH: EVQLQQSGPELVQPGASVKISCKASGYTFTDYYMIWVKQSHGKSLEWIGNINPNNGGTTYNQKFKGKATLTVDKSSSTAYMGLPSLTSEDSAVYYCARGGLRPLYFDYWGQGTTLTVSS VL: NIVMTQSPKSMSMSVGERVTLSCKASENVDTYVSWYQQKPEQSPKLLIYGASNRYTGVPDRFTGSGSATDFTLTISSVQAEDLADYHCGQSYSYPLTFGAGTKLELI ; its AntiCD3/CD28 (CD4 T cell proliferation) repeat 2 = 23

# binder 15C6 (antibody, IgG1, V domains shown, mIgG1) VH: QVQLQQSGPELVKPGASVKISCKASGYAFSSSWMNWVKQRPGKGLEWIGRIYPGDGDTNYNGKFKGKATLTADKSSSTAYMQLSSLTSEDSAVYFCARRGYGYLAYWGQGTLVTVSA VL: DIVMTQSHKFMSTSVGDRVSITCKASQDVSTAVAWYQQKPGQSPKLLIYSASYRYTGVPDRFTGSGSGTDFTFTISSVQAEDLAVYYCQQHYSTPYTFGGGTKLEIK ; its AntiCD3/CD28 (CD4 T cell proliferation) repeat 2 = -2
